# IC50 per record follows
- Tested Target: Induced myeloid leukemia cell differentiation protein Mcl-1 (Homo sapiens, UniProt Q07820)
- Sequence (Q07820 whole entry): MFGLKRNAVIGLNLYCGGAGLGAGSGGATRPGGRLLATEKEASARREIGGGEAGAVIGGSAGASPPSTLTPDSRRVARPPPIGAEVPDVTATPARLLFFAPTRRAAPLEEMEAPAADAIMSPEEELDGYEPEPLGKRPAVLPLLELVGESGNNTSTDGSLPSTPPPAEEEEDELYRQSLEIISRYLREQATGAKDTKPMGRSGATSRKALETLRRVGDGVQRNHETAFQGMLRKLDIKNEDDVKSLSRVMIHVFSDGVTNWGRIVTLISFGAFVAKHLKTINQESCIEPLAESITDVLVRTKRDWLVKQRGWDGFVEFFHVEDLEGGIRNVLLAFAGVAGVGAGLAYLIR
- Type: functional
Activity calls are given as the source filed them.

INSERT INTO assay_data (compound, test_result) VALUES
  ('Cc1[nH]n(-c2ncc(-c3ccccc3)s2)c(=O)c1C(c1ccc(Cl)cc1)C(C#N)C#N (stereo not drawn)', '8.69 µM (active)');

IC50 lookup needed for Oc1ccc(-c2cn3c(n2)SCC3)cc1O , thanks. 2.26 µM (active)

State the recorded IC50 for this entry: CCC1CSC(Nc2ccc(C(=O)/C=C/c3cccc(C)c3)cc2)=N1 (stereo not drawn) 1.66 µM (active)

Could you tell me which IC50 is on file for Cc1ccc(C(=O)COC(=O)CNC(=O)c2ccc(N3C(=O)c4ccccc4C3=O)cc2)cc1C ? 2.13 µM (not active)

====

- Tested Target: UniProtKB P38532
- Sequence (P38532 whole entry): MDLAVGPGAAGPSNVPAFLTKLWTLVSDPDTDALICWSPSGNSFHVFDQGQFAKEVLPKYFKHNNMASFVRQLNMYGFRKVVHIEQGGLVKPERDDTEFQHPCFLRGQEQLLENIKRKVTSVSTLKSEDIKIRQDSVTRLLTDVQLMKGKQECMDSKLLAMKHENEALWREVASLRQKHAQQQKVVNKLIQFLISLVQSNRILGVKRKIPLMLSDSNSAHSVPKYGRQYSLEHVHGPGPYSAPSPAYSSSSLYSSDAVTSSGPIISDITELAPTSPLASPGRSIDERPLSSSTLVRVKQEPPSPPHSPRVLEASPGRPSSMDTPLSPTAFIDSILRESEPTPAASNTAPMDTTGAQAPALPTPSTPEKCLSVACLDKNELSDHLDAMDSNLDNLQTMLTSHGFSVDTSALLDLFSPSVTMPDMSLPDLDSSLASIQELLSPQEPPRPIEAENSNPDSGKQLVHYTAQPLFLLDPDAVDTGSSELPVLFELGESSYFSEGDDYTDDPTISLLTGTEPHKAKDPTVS
- Test Name: HSF1 potentiators in luciferase reporter cells, confirmation, cell-based, NIH3T3, luminescence, dose retest (AID 435004);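 note: stress induced by proteasome inhibitor MG132 added 30 min after compound; luciferase reporter driven by HSF1 response element in NIH3T3 cells; actives raise luminescence as potentiators of the MG132 stress response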
- Assay type: functional
Active and inactive are the calls of the source.
Give your call using only these classes: TRUE (active), FALSE (inactive)

For orientation, consider the following solved cases.
INSERT INTO results (molecule, assigned_category) VALUES
  ('CC1CCN(c2ccc(C=O)o2)CC1', 'FALSE'),
  ('O=C(Oc1ccc(C(=S)N2CCOCC2)cc1Br)c1cc(Cl)ccc1Cl', 'TRUE'),
  ('Cc1cccc(N2CCN(C(=O)CSCc3c(C)noc3C)CC2)c1C', 'TRUE'),
  ('O=C(c1cccnc1S)N1CCN(S(=O)(=O)c2ccc(Br)cc2Cl)CC1', 'FALSE'),
  ('Cc1cc(C)cc(NC(=O)CN2C(=O)NC(C)(c3ccccc3)C2=O)c1 (stereo unspecified)', 'FALSE');

Here is the next item to consider.
Lab log entry: COc1cc(CNCC(O)c2ccccc2)ccc1OCc1ccc(Cl)nc1 (stereo unspecified) — outcome as called in the assay? FALSE

====

- Tested Target: Sentrin-specific protease 8 (Homo sapiens, UniProt Q96LD8);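 note: luminescence read-out of SENP8 inhibition, dose-response confirmation following an ultra-high-throughput screen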
- Sequence (Q96LD8 whole entry): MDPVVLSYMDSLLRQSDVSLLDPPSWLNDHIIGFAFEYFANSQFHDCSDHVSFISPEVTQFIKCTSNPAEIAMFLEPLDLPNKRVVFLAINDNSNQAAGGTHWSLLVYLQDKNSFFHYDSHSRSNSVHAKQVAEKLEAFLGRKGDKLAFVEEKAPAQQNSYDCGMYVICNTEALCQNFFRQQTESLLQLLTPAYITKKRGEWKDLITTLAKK
- Type: functional
Active and inactive are the calls of the source.
Pick one and only one: t for active, f for inactive

INSERT INTO measurements (structure, assigned_category) VALUES
  ('COc1ccc(C(=O)COC(=O)c2n[nH]c3ccccc23)c(OC)c1', 't'),
  ('COc1ccc(C(N)=NOC(=O)Cc2cccs2)cc1', 't'),
  ('CCSc1nsc(NC(=O)Nc2ccc(F)cc2F)n1', 'f');

Please share the test call associated with COC(=O)Nc1nnc(-c2ccccc2Cl)s1 . t

====

- Tested Target: UniProt Q92731
- Sequence (Q92731 whole entry): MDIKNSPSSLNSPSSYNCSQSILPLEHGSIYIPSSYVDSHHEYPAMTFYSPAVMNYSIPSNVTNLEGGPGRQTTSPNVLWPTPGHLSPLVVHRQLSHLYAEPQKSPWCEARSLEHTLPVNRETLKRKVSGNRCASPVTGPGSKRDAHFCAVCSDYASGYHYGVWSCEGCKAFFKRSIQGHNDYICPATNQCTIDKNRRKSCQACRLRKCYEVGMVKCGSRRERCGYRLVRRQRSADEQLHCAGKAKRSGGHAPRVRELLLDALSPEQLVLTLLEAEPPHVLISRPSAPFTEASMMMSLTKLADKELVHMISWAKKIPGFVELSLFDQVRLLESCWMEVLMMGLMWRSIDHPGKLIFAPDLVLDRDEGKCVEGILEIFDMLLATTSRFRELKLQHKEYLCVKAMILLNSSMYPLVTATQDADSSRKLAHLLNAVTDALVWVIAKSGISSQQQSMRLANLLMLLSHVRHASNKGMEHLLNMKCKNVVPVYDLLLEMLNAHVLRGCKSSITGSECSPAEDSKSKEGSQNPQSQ
- Test Name: ERβ–SRC-3 coactivator interaction inhibitors, confirmation, orthogonal assay, biochemical, ELISA, streptavidin-HRP readout (AID 1060)
Each item that follows carries a reported IC50.

Guide cases for IC50, answers given:
INSERT INTO assay_data (structure, value_type, test_result) VALUES
  ('O=C(O)c1cccc(-n2cccc2/C=N/O)c1', 'IC50', '< 0.023 µM (not active)'),
  ('COc1ccc(NC(=O)Nc2ccc(N(C)C)cc2)cc1', 'IC50', '14.4 µM (not active)'),
  ('O=C(Cc1cccs1)Nc1nnc(Cc2ccccc2)s1', 'IC50', '14.4 µM (not active)');

Alright, here's another molecule for you.
I'd like to know its IC50. The molecule in question is Oc1ccc(-c2cn3c(n2)SCC3)cc1O 10.7 µM (not active)

====

compounds and their reported EC50
- Tested Target: Zinc finger protein mex-5 (Caenorhabditis elegans, UniProt Q9XUB2)
- Sequence (Q9XUB2 whole entry): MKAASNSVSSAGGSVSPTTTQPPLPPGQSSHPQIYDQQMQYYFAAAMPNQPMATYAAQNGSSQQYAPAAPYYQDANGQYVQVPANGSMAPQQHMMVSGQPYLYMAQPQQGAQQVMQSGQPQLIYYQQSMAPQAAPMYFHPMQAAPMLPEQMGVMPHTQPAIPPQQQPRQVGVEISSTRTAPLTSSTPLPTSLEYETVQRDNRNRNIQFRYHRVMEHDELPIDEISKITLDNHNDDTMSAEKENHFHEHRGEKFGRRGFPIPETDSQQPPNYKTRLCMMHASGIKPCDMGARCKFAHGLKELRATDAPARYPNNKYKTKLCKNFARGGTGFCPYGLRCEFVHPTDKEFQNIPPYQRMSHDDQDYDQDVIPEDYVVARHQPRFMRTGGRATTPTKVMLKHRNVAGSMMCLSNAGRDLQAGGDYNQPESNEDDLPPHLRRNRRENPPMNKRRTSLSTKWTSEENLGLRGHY
- Test Name: MEX-5/TCR-2 RNA interaction inhibitors, dose response, biochemical, C. elegans, fluorescence polarization (AID 1960)
The source made the active and inactive calls.

INSERT INTO results (structure, tested_target, value_type, test_result) VALUES
  ('NS(=O)(=O)c1ccc(NC(=O)COC(=O)c2cn(-c3ccccc3)nc2-c2ccc(F)cc2)cc1', 'Zinc finger protein mex-5 (Caenorhabditis elegans, UniProt Q9XUB2)', 'EC50', '> 300 µM (not active)'),
  ('Cc1ccn2c(=O)nc(SCC(=O)Nc3cc(C)on3)nc2c1', 'Zinc finger protein mex-5 (Caenorhabditis elegans, UniProt Q9XUB2)', 'EC50', '> 300 µM (not active)'),
  ('COc1ccc(/C=C2/N=C(c3cccs3)OC2=O)cc1OC(C)C', 'Zinc finger protein mex-5 (Caenorhabditis elegans, UniProt Q9XUB2)', 'EC50', '41.1 µM (active)');

# input for lookup
Quick check: EC50 on Zinc finger protein mex-5 (Caenorhabditis elegans, UniProt Q9XUB2), item C/C(NCc1ccc2c(c1)OCO2)=C1/C(=O)NC(=O)N(c2ccccc2)C1=O ? > 300 µM (not active)

====

- Tested Target: Large T antigen (Simian virus 40);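 note: Confirmatory-stage PubChem screen for compounds that inhibit SV40 T antigen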
- Sequence (P03070 whole entry): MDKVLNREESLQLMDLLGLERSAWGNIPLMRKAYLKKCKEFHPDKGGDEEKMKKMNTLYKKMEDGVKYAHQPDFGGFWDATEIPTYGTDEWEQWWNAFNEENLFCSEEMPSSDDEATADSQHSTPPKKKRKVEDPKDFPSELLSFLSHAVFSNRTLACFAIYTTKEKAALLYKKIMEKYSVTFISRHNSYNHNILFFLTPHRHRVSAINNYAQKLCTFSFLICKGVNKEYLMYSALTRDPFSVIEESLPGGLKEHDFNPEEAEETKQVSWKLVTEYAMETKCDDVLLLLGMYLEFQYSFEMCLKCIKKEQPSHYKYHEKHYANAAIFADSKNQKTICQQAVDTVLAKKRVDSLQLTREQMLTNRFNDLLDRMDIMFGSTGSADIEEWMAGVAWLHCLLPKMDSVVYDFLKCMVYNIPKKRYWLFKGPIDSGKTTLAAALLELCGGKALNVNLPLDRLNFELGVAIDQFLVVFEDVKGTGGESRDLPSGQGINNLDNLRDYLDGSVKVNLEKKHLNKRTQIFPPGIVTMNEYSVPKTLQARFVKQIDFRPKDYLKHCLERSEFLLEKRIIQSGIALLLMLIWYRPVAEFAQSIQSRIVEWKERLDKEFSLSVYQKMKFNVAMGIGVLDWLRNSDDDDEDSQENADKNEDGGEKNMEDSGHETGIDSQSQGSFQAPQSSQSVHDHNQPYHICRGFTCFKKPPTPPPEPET
- Format: functional, Betapolyomavirus macacae
Active and inactive are the calls of the source.
IC50 reference

INSERT INTO results (molecule, test_result) VALUES
  ('Oc1ccc(-c2cn3c(n2)SCC3)cc1O', '9.74 µM (active)'),
  ('COc1ccc(NC2CCCN(C(=O)c3cccc(C(F)(F)F)c3)C2)cc1OC (stereo not given)', '44.1 µM (active)'),
  ('Cc1ccc(-c2c3c([nH]c(=S)c2C#N)CCCC3)o1', '35.4 µM (active)');

I'd like to know its IC50. The molecule in question is N#Cc1ccsc1NC(=O)CN1CCN(c2ccc(O)cc2)CC1 6.44 µM (active)

# query: IC50 of entry CCN(CC)c1ccc(N/C=C2/C(=O)NC(=O)N(c3ccccc3C)C2=O)cc1 > 100 µM (active)

====

- Tested Target: UniProt:Q9NPC2
- Sequence (Q9NPC2 whole entry): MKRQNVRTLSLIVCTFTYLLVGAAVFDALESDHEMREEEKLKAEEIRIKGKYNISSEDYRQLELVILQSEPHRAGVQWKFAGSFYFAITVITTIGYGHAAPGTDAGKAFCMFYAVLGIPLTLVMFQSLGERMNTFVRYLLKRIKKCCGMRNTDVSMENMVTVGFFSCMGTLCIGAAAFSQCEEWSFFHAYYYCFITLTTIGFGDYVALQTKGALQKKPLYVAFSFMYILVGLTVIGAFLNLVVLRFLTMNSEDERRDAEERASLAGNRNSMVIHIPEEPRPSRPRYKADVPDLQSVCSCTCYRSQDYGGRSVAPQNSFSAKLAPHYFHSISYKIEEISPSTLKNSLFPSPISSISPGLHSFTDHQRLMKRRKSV
- Test Name: TASK3 (KCNK9) channel inhibitors, thallium flux, SAR follow-up, selectivity assay for TASK1 inhibitor project, cell-based, FluxOR thallium flux, concentration-response (AID 652211);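 note: potency is for inhibitors of the channel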
- Assay type: functional
Activity calls are given as the source filed them.
Value Type: IC50

INSERT INTO results (structure, value_type, test_result) VALUES
  ('CCOc1ccccc1C(=O)Nc1cccc(NC(=O)C2CCCC2)c1', 'IC50', '1.11 µM (active)'),
  ('COc1ccccc1NC(=O)c1cccc(NC(=O)c2ccccc2C(F)(F)F)c1', 'IC50', '1.32 µM (active)'),
  ('COc1ccccc1C(=O)Nc1cccc(NC(=O)c2ccccc2C(C)C)c1', 'IC50', '0.74 µM (active)');

Okay, now this compound:
# IC50 lookup, item CC(C)Oc1ccccc1C(=O)Nc1cccc(NC(=O)c2ccccc2OC(F)(F)F)c1 0.07 µM (active)

====

- Test Name: growth suppression of PTEN-null colon cells, dose response, cell-based, HCT116 PTEN knockout (AID 1047);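 note: HCT116 colon tumor cells with PTEN knocked out; cells exposed to compound for 60 hours before readout; potency for loss of cell viability measured by luminescence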
- Assay type: functional
Active and inactive are the calls of the source.
The following compounds are listed with their measured EC50 values.

Here are 3 compounds together with their reported answers.
INSERT INTO results (structure, test_result) VALUES
  ('CCOC(=O)/C(=C\c1ccc([N+](=O)[O-])cc1)C(=O)c1cc(C(C)=O)c(Nc2ccccc2)s1', '4.17 µM (active)'),
  ('CC(C)CCn1c(N2CCN(c3cccc(Cl)c3)CC2)nc2c1c(=O)[nH]c(=O)n2C', '26.1 µM (active)'),
  ('Cc1ccc(NC2=C/C(=N\S(=O)(=O)c3cccs3)c3ccccc3C2=O)c(C)c1', '1.1 µM (active)');

Let us examine a further case.
Returns the measured EC50 for the input compound. Input: CCOC(=O)c1sc(NC(=O)c2c(C)nn(Cc3ccccc3)c2C)cc1C 30.4 µM (active)

====

- Test Name: inhibitors of intracellular T. cruzi replication, confirmation, NIH3T3 host cells, beta-gal luminescence (AID 2044);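 note: intracellular parasites grown in NIH/3T3 mouse fibroblasts as host cells; luminescent beta-galactosidase reporter signal from transgenic T. cruzi replicating inside host cells; inhibitors lower the luminescence signal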
- Format: functional, cell-based
The source made the active and inactive calls.
Listed here are molecules together with their documented EC50.

Worked examples, 3 molecules total:
INSERT INTO measurements (molecule, value_type, test_result) VALUES
  ('CCc1c(-c2ccccc2)nc2sc3c(c2c1N)CCCC3', 'EC50', '2.01 µM (active)'),
  ('Cc1ccc(NC(=O)N(Cc2cccnc2)Cc2ccco2)cc1C', 'EC50', '1.39 µM (active)'),
  ('CCCc1ccc(-c2cc(C(=O)N/N=C/c3ccc([N+](=O)[O-])o3)c3ccccc3n2)cc1', 'EC50', '0.194 µM (active)');

Quick one: EC50 for CN(Cc1ccccc1)Cc1c[nH]c2ccccc12 ? 0.972 µM (active)

Given the entry Oc1c(N=NC(S)=Nc2ccccc2F)c2ccccc2n1Cc1ccc(F)cc1 , report its measured EC50. 1.06 µM (active)

Item CCC(C)Oc1cc(-c2ccnc(Nc3cccc(Cl)c3)n2)ccn1 (stereo unspecified) has what recorded EC50? 1.7 µM (active)

Would you kindly share the measured EC50 for CC(=O)N(C1=C(Cl)C(=O)c2ccccc2C1=O)C1CCCCC1 ? 1.83 µM (active)

Param item = c1cnc2ccc(C(c3nnnn3C3CCCCC3)N3CCN(C4CCCCC4)CC3)cc2c1 (stereo unspecified) ; retrieve measured EC50. 8.47 µM (active)

Reported EC50, molecule Cc1cc(Br)cc(C)c1OCCCCN(C)C.O=C(O)C(=O)O : ____ 0.196 µM (active)

Which EC50 value belongs to Cc1cc2c(c(=O)n1Cc1ccc3c(c1)OCO3)C(c1cccnc1)C(C#N)=C(N)O2 (stereo unspecified) ? 1.94 µM (active)

Item CC(C)c1ccccc1OCC(O)CN(CC(O)COc1cccc2ccccc12)C(C)C (stereo unspecified) has what recorded EC50? 3.45 µM (active)
